I10 μM/ICONTROL (mean ± SEM, %) Glu N2C values for the compounds below.
Molecular target: GluN2C-containing NMDA receptors (Homo sapiens, UniProt Q14957)
Sequence (Q14957 20-1233, other chains not shown): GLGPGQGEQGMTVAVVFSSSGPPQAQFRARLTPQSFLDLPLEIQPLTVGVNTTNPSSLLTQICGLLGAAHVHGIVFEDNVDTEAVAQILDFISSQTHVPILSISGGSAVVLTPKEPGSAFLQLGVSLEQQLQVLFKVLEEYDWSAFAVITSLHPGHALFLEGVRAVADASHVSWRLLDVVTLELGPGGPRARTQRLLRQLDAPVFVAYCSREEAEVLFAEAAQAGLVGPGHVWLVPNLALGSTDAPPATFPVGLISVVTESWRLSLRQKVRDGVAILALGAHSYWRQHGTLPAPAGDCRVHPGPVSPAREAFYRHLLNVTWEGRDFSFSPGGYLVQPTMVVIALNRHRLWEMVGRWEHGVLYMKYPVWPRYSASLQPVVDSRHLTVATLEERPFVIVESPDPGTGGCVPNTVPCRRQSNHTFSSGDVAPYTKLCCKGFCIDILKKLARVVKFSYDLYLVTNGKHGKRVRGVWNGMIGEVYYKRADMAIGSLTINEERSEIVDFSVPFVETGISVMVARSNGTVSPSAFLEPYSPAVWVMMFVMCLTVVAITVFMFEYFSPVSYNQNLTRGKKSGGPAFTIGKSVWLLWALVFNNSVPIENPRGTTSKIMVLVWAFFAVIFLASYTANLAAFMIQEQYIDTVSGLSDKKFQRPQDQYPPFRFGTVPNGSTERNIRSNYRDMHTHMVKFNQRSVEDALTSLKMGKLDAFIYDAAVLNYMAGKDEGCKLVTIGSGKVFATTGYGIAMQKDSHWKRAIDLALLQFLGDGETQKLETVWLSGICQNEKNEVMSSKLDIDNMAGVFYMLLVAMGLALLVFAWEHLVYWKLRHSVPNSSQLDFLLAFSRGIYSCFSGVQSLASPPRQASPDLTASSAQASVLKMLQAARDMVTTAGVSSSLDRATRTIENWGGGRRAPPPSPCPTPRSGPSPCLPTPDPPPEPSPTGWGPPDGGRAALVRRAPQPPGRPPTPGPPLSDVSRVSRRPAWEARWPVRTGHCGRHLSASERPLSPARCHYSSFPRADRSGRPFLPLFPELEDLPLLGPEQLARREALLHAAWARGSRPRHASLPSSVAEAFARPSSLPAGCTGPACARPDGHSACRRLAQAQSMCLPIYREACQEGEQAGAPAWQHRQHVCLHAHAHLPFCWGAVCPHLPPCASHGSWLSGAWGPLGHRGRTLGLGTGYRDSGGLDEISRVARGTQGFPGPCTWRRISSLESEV
Assay: Two-electrode voltage-clamp recordings from Xenopus laevis oocytes, GluN2C
Assay type: cell-based
Settings: 10 μM test compound with glutamate 100 μM and glycine 30 μM; percent of response without compound; Tables 1-5

Answered cases to consult:
INSERT INTO results (compound, recordedvalue) VALUES
  ('Cc1sc2ncn(CC(=O)c3cccs3)c(=O)c2c1-c1cccc(Cl)c1 [1 / 3-Cl—Ph / Me / 2-thiophene]', '125 ± 2.8%'),
  ('Cc1sc2ncn(CC(=O)N3CCCC3)c(=O)c2c1-c1ccccc1 [Ph / Me]', '120 ± 3.7%'),
  ('Cc1sc2ncn(CC(=O)N3CCCC3)c(=O)c2c1-c1cccc(-n2cncn2)c1 [3-1,2,4 triazolyl-Ph / Me]', '113 ± 5.8%');

# input State its I10 μM/ICONTROL (mean ± SEM, %) Glu N2C on GluN2C-containing NMDA receptors (Homo sapiens, UniProt Q14957): Cc1sc2ncn(CCC(=O)O)c(=O)c2c1-c1cccc(Cl)c1 [2 / 3-Cl—Ph / Me / OH]
# output 89 ± 6.2%

# input State its I10 μM/ICONTROL (mean ± SEM, %) Glu N2C on GluN2C-containing NMDA receptors (Homo sapiens, UniProt Q14957): Cc1sc2ncn(CC(=O)OC(C)(C)C)c(=O)c2c1-c1cccc(I)c1 [1 / 3-I—Ph / Me / OtBu]
# output 101 ± 6.8%

# input State its I10 μM/ICONTROL (mean ± SEM, %) Glu N2C on GluN2C-containing NMDA receptors (Homo sapiens, UniProt Q14957): Cc1sc2ncn(CCC(=O)Oc3ccccc3)c(=O)c2c1-c1cccc(Cl)c1 [2 / 3-Cl—Ph / Me / OPh]
# output 91 ± 1.1%

# input State its I10 μM/ICONTROL (mean ± SEM, %) Glu N2C on GluN2C-containing NMDA receptors (Homo sapiens, UniProt Q14957): Cc1sc2ncn(CC(=O)N3CCCC3)c(=O)c2c1-c1cccc(C#N)c1 [3-CN—Ph / Me]
# output 190 ± 4.2%

# input State its I10 μM/ICONTROL (mean ± SEM, %) Glu N2C on GluN2C-containing NMDA receptors (Homo sapiens, UniProt Q14957): Cc1sc2ncn(CC(=O)SC(C)(C)C)c(=O)c2c1-c1cccc(Cl)c1 [1 / 3-Cl—Ph / Me / StBu]
# output 87 ± 4.0%

# input State its I10 μM/ICONTROL (mean ± SEM, %) Glu N2C on GluN2C-containing NMDA receptors (Homo sapiens, UniProt Q14957): Cc1sc2ncn(CC(=O)N3CCCCC3)c(=O)c2c1-c1cc(Br)cc(Br)c1 [1 / 3,5-Br—Ph / Me / —Npiperidine]
# output 232 ± 14.4%

---

I10 μM/ICONTROL (mean ± SEM, %) Glu N2B values for the molecules below.
Target: GluN2B-containing NMDA receptors (Homo sapiens)
Sequence (Q13224 27-1484, other chains not shown): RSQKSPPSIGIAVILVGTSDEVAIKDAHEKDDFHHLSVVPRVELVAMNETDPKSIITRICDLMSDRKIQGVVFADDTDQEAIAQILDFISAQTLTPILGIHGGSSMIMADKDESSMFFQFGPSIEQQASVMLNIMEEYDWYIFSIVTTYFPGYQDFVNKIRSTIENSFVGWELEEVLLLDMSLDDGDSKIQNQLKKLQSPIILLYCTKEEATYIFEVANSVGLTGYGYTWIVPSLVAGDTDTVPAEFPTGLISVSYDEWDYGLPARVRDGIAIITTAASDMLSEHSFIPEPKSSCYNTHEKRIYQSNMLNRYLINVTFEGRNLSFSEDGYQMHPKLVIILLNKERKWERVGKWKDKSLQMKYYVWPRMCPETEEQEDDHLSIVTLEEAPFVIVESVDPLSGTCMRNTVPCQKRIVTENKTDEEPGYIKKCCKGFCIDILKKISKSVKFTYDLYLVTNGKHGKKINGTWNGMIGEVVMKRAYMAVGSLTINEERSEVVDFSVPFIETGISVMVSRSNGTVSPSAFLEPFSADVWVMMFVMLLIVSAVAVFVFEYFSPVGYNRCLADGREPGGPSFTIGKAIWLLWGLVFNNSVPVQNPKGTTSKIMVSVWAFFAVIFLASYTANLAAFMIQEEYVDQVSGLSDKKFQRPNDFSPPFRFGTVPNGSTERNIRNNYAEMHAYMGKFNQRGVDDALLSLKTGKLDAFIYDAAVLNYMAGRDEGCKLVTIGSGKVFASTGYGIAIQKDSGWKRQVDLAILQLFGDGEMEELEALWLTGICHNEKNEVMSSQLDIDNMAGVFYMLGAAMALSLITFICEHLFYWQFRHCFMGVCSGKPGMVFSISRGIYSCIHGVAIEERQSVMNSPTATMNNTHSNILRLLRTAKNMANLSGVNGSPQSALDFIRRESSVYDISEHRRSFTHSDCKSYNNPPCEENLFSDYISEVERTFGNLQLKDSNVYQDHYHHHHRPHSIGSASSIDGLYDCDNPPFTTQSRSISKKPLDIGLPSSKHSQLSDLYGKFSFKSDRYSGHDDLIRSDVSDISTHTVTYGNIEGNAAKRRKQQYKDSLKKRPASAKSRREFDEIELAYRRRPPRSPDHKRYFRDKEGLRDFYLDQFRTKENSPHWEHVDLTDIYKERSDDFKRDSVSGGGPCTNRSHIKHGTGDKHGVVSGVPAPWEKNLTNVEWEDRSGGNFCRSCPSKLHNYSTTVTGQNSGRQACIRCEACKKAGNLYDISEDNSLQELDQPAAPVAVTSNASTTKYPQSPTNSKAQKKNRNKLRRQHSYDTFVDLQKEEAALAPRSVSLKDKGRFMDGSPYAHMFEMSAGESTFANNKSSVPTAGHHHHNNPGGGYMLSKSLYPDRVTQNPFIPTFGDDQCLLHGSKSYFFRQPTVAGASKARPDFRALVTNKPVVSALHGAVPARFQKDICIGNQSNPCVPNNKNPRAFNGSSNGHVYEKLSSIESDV
Assay: Two-electrode voltage-clamp recordings from Xenopus laevis oocytes, GluN2B
Type: cell-based
Conditions: 10 μM test compound with glutamate 100 μM and glycine 30 μM; percent of response without compound; Tables 1-5
Param answer (str): number followed by unit.

Answered cases to consult:
INSERT INTO measurements (molecule, recordedvalue) VALUES
  ('CCSC(=O)Cn1cnc2sc(C)c(-c3cccc(Cl)c3)c2c1=O [1 / 3-Cl—Ph / Me / SEt]', '95 ± 0.9%'),
  ('COc1cccc(C(=O)Cn2cnc3sc(C)c(-c4cccc(I)c4)c3c2=O)c1 [1 / 3-I—Ph / Me / 3-OMe—Ph]', '107 ± 3.0%'),
  ('COc1ccc(C(=O)Cn2cnc3sc(C)c(-c4cccc(I)c4)c3c2=O)cc1 [1 / 3-I—Ph / Me / 4-OMe—Ph]', '84 ± 5.2%'),
  ('COCCn1cc(Cn2cnc3sc(C)c(-c4cccc(Cl)c4)c3c2=O)nn1', '99 ± 1.9%'),
  ('Cc1sc2ncn(CC(=O)N3CCCC3)c(=O)c2c1-c1ccccc1C(F)(F)F [2-CF3—Ph / Me]', '93 ± 2.0%');

# input Could you tell me which I10 μM/ICONTROL (mean ± SEM, %) Glu N2B is on file for Cc1sc2ncn(CC(=O)N(C)C)c(=O)c2c1-c1ccc(Br)cc1 [1 / 4-Br—Ph / Me / —N(Me)2] ?
# output 92 ± 1.7%

# input Could you tell me which I10 μM/ICONTROL (mean ± SEM, %) Glu N2B is on file for Cc1sc2ncn(CC(=O)O)c(=O)c2c1-c1cccc(Cl)c1 [1 / 3-Cl—Ph / Me / OH] ?
# output 93 ± 1.2%

# input Could you tell me which I10 μM/ICONTROL (mean ± SEM, %) Glu N2B is on file for [N-]=[N+]=Nc1ccc(-c2csc3ncn(CC(=O)N4CCCC4)c(=O)c23)cc1 [4-N3—Ph / H] ?
# output 134 ± 6.7%

# input Could you tell me which I10 μM/ICONTROL (mean ± SEM, %) Glu N2B is on file for Cc1sc2ncn(CC(=O)SC(C)(C)C)c(=O)c2c1-c1cccc(Cl)c1 [1 / 3-Cl—Ph / Me / StBu] ?
# output 92 ± 4.6%

# input Could you tell me which I10 μM/ICONTROL (mean ± SEM, %) Glu N2B is on file for Cc1sc2ncn(CC(=O)c3cccs3)c(=O)c2c1-c1cccc(Cl)c1 [1 / 3-Cl—Ph / Me / 2-thiophene] ?
# output 133 ± 3.9%

# input Could you tell me which I10 μM/ICONTROL (mean ± SEM, %) Glu N2B is on file for Cc1sc2ncn(CC(=O)OC(C)(C)C)c(=O)c2c1-c1cccc(I)c1 [1 / 3-I—Ph / Me / OtBu] ?
# output 87 ± 3.9%

# input Could you tell me which I10 μM/ICONTROL (mean ± SEM, %) Glu N2B is on file for O=C(Cn1cnc2sc3c(c2c1=O)CCCC3)c1ccc(Cl)cc1Cl [2,4-Cl] ?
# output 91 ± 3.6%
